Tested on: NCI
Assay: Cytotoxicity on human cells, NCI (lung)
Type: cell-based
Details: exposed 24 h and 48 h, 0.1 to 25 μM
pIC50: −log10 of the molar value.
Please note: 1 (yes) applies when pIC50 is 5 or greater, and 0 (no) applies otherwise.

>  <COMPOUND>
Oc1ccc(-c2ncc3ncc(-c4ccccc4O)cc3n2)cc1

>  <MEASURED_ON>
NCI

>  <LABEL>
0 (no)

$$$$
>  <COMPOUND>
Oc1ccc(-c2ncc3ncc(Nc4ccon4)cc3n2)cc1

>  <MEASURED_ON>
NCI

>  <LABEL>
1 (yes)

$$$$
>  <COMPOUND>
CS(=O)(=O)c1ccc(-c2cnc3cnc(-c4ccc(O)cc4)nc3c2)cc1

>  <MEASURED_ON>
NCI

>  <LABEL>
0 (no)

$$$$
>  <COMPOUND>
OCCNc1nc(NCc2ccccc2)c2ncc(Nc3ccc4ncccc4c3)cc2n1

>  <MEASURED_ON>
NCI

>  <LABEL>
1 (yes)

$$$$
>  <COMPOUND>
Oc1ccc(-c2ncc3ncc(-c4ccco4)cc3n2)cc1

>  <MEASURED_ON>
NCI

>  <LABEL>
1 (yes)

$$$$
>  <COMPOUND>
COc1ccc(Nc2cnc3c(NCc4ccccc4)nc(NCCO)nc3c2)cc1

>  <MEASURED_ON>
NCI

>  <LABEL>
1 (yes)

$$$$
>  <COMPOUND>
Oc1cccc(-c2cnc3cnc(-c4cccc(O)c4)nc3c2)c1

>  <MEASURED_ON>
NCI

>  <LABEL>
0 (no)

$$$$
>  <COMPOUND>
Oc1ccc(Nc2ncc3ncc(-c4ccc(O)cc4)cc3n2)cc1

>  <MEASURED_ON>
NCI

>  <LABEL>
1 (yes)

$$$$
>  <COMPOUND>
Oc1ccc(Nc2ncc3ncc(-c4ccccc4O)cc3n2)cc1

>  <MEASURED_ON>
NCI

>  <LABEL>
1 (yes)

$$$$
>  <COMPOUND>
OCCNc1nc(NCc2ccccc2)c2ncc(Nc3ncccn3)cc2n1

>  <MEASURED_ON>
NCI

>  <LABEL>
1 (yes)

$$$$
>  <COMPOUND>
Cc1csc(Nc2cnc3cnc(-c4ccc(O)cc4)nc3c2)n1

>  <MEASURED_ON>
NCI

>  <LABEL>
0 (no)

$$$$
>  <COMPOUND>
Oc1ccc(-c2ncc3ncc(-c4cccs4)cc3n2)cc1

>  <MEASURED_ON>
NCI

>  <LABEL>
1 (yes)

$$$$
>  <COMPOUND>
Oc1ccc(-c2ncc3ncc(-c4ccc(C(F)(F)F)cc4)cc3n2)cc1

>  <MEASURED_ON>
NCI

>  <LABEL>
0 (no)

$$$$
>  <COMPOUND>
Oc1ccc(-c2ncc3ncc(Nc4ncccn4)cc3n2)cc1

>  <MEASURED_ON>
NCI

>  <LABEL>
1 (yes)

$$$$
>  <COMPOUND>
Oc1ccc(-c2cnc3cnc(-c4ccc(O)cc4)nc3c2)cc1

>  <MEASURED_ON>
NCI

>  <LABEL>
0 (no)

$$$$
>  <COMPOUND>
Oc1ccc(-c2ncc3ncc(Nc4nc5ccccc5s4)cc3n2)cc1

>  <MEASURED_ON>
NCI

>  <LABEL>
0 (no)

$$$$
>  <COMPOUND>
Oc1ccc(-c2ncc3ncc(Cl)cc3n2)cc1

>  <MEASURED_ON>
NCI

>  <LABEL>
0 (no)

$$$$
>  <COMPOUND>
Oc1ccc(-c2ncc3ncc(-c4cccnc4)cc3n2)cc1

>  <MEASURED_ON>
NCI

>  <LABEL>
0 (no)

$$$$
>  <COMPOUND>
Oc1ccc(-c2ncc3ncc(-c4ccncc4)cc3n2)cc1

>  <MEASURED_ON>
NCI

>  <LABEL>
1 (yes)

$$$$
>  <COMPOUND>
Oc1ccc(Nc2ncc3ncc(-c4cccc(O)c4)cc3n2)cc1

>  <MEASURED_ON>
NCI

>  <LABEL>
1 (yes)

$$$$
